# Tested on: LOC_OS02G07810-cb001
# experimental_protocol: thermal shift delta Tm vs DMSO control; higher = stronger stabilization (binding);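 note: purified Escherichia coli-expressed rice kinase domain construct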
# conditions: 12.5 µM; protein concentration 2 µM
assay_metric: thermal shift delta Tm
Param answer (str): number followed by unit.

| molecule | thermal shift delta Tm |
| --- | --- |
| Cn1cnc2c(F)c(Nc3ccc(Br)cc3Cl)c(C(=O)NOCCO)cc21 | 0.62 °C |
| O=C(/C=C/c1ccc2ccccc2n1)c1ccncc1 | 0.02 °C |
| CCN(CC)CCNC(=O)c1c(C)[nH]c(/C=C2\C(=O)Nc3ccc(-c4csc(-c5ccccc5)n4)cc32)c1C | -0.19 °C |
| COc1ccc(C(=O)Nc2sc3c(c2C(N)=O)CCCC3)cc1OC | 1.01 °C |
| NC(=O)c1ccc(N(C(N)=O)c2c(F)cccc2F)nc1-c1ccc(F)cc1F | 0.66 °C |

Provide thermal shift delta Tm values for the following items, in order.
1. Cc1cc([C@@H](C)Nc2ccccc2C(=O)O)c2nc(N3CCOCC3)cc(=O)n2c1
2. CC[C@@H]1C(=O)N(C)c2cnc(Nc3ccc(C(=O)NC4CCN(C)CC4)cc3OC)nc2N1C1CCCC1
3. CCc1cc(Nc2nccc(-c3c(-c4ccc(OC)c(C(=O)Nc5c(F)cccc5F)c4)nc4ccccn34)n2)c(OC)cc1N1CCC(N2CCN(S(C)(=O)=O)CC2)CC1
4. Cc1ccc(CNc2ncnc3ccc(-c4ccc(CO)o4)cc23)o1
5. C[C@H]1[C@H](C)CC[C@]2(C(=O)O)CC[C@]3(C)C(=CC[C@@H]4[C@@]5(C)C[C@@H](O)[C@H](O)[C@@](C)(CO)[C@@H]5CC[C@]43C)[C@H]12
6. O=C(c1ccc(F)c(F)c1Nc1ccc(I)cc1F)N1CC(O)([C@@H]2CCCCN2)C1
7. CS(=O)(=O)CCNCc1ccc(-c2ccc3ncnc(Nc4ccc(OCc5cccc(F)c5)c(Cl)c4)c3c2)o1 [Lapatinib]

**A:**
1. 1.33 °C
2. 0.2 °C
3. 0.77 °C
4. 0.27 °C
5. 0.83 °C
6. 0.48 °C
7. 1.88 °C

----------
# Tested on: LOC_OS02G45750-cb003
# experimental_protocol: thermal shift delta Tm vs DMSO control; higher = stronger stabilization (binding)
# conditions: 12.5 µM; protein concentration 2 µM
Counter-ions that a name gives are not always drawn.
assay_metric: thermal shift delta Tm
Param answer (str): number followed by unit.

Examples from the recorded data:
| compound | result |
| --- | --- |
| Nc1ncccc1-c1nc2ccc(-c3ccccc3)nc2n1-c1ccc(C2(N)CCC2)cc1 [Miransertib (ARQ 092) HCl] | 0.57 °C |
| CC(C)(CCCCCC(O)CCCCCC(C)(C)C(=O)O)C(=O)O | 0.72 °C |
| CCNC(=O)Nc1ccc(-c2nc3c(c(N4CCOC[C@@H]4C)n2)CCN(C2COC2)C3)cc1 | 1.07 °C |

Now for another entry.
Result for CCN(CC)CCNC(=O)c1c(C)[nH]c(/C=C2\C(=O)Nc3ccc(F)cc32)c1C [Sunitinib Malate] , tested on LOC_OS02G45750-cb003, thermal shift delta Tm: 12.4 °C

----------
# Tested on: LOC_OS04G41100-cb001
# Sequence (as listed by the source): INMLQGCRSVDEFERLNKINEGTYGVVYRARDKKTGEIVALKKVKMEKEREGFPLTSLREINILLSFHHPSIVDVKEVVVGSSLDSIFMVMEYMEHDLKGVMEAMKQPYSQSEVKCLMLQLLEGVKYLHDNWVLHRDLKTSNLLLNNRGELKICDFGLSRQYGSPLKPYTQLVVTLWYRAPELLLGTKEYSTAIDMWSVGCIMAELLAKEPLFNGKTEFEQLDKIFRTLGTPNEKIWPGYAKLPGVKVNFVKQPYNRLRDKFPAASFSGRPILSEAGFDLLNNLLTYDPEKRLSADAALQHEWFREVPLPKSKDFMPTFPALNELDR
# experimental_protocol: thermal shift delta Tm vs DMSO control; higher = stronger stabilization (binding)
# conditions: 12.5 µM; protein concentration 2 µM
assay_metric: thermal shift delta Tm (°C)
One number for each entry, in °C.

Examples from the recorded data:
| molecule | unit_tag | thermal shift delta Tm |
| --- | --- | --- |
| CN1CC[C@H](c2c(O)cc(O)c3c(=O)cc(-c4ccccc4Cl)oc23)[C@H](O)C1 [Flavopiridol (Alvocidib)] | °C | 0.66 |
| C=CC(=O)Nc1ccc2ncnc(Nc3cccc(Br)c3)c2c1 | °C | 0.35 |
| O=C(/C=C/c1ccc(O)c(O)c1)c1ccc(O)cc1O | °C | 2.09 |
| Cn1ncc(Cl)c1-c1cc(C(=O)N[C@H](CN)Cc2ccc(F)c(F)c2)oc1Cl | °C | 0.63 |
| Cc1ncc(CCCN(C)C)cc1Nc1ncc2c(n1)-c1ccc(C(F)(F)F)cc1NC(=S)C2 | °C | 0.47 |
| CC#CC(=O)Nc1ccc2ncnc(Nc3cccc(Br)c3)c2c1 | °C | 0.03 |

Provide thermal shift delta Tm values for the following items, in order.
1. COc1ccc(COc2cc3oc(=O)c4cc(C(C)O)ccc4c3cc2OC)cc1 (stereo unspecified)
2. O=C(O)c1ccc(-c2c[nH]c3ncc(-c4ccccc4)cc23)cc1C1CCCC1
3. Oc1cc(O)cc(/C=C/c2ccc(O)c(O)c2)c1
4. Cc1c(NC(=O)c2ccc(C(C)(C)C)cc2)cccc1-c1cn(C)c(=O)c(Nc2ccc(C(=O)N3CCOCC3)cc2)n1
5. CCCNC(=O)Nc1ccc(Oc2ncnc3cc(OC)c(OC)cc23)cc1Cl

**A:**
0.32
0.44
0.8
0.43
-0.34
